SYSTEM UNDER TEST: Recombinant human IL-1β (BioLegend 579404) (human, UniProt P01584 117-269)
EXPERIMENT SUMMARY: cell-based or functional assay
Starred links: 1 amine or outer side, 2 acyl side, 3 side chain; linkers in the order of their positions; H or OH if unused. Non-standard residues stand in square brackets, D forms with d. No end group written: not given here. dPro(4R-(4-pyridylmethyl)) = O=C(O)[C@H]1C[C@@H](Cc2ccncc2)CN1; Ala(piperidin-4-yl) = O=C([C@H](CC1CCN([*:3])CC1)N[*:1])[*:2]; Trp(βS-Me,4-F) = C[C@@H](c1c[nH]c2cccc(F)c12)[C@H](N)C(=O)O; Bip(4'-COOH) = N[C@@H](Cc1ccc(-c2ccc(C(=O)O)cc2)cc1)C(=O)O; Ala(1-bicyclo(1.1.1)pentyl) = N[C@@H](CC12CC(C1)C2)C(=O)O; Ala(pyrimidin-5-yl) = N[C@@H](Cc1cncnc1)C(=O)O; Phe(4-COOH) = N[C@@H](Cc1ccc(C(=O)O)cc1)C(=O)O; Pro(cis-4-F) = O=C(O)[C@@H]1C[C@H](F)CN1; d(αMeD) = C[C@@](N)(CC(=O)O)C(=O)O; 4Pal = N[C@@H](Cc1ccncc1)C(=O)O; αMeD = C[C@](N)(CC(=O)O)C(=O)O; Dab = NCC[C@H](N)C(=O)O; Aib = CC(C)(N)C(=O)O

BINDER	MRC5 IC50 [nM]
[Bip(4'-COOH)][Ala(1-bicyclo(1.1.1)pentyl)][Phe(4-COOH)]G[Pro(cis-4-F)][Trp(βS-Me,4-F)][Aib]SW[Aib][Ala(piperidin-4-yl)]QSG[dPro(4R-(4-pyridylmethyl))] (lactam (positions not given here); also: macrolactam ring, closure sites not given here) [SEQ ID NO: 180]	0.027
cyclo([Bip(4'-COOH)][4Pal][Phe(4-COOH)]G[Pro(cis-4-F)][Trp(βS-Me,4-F)][Aib]SW[d(αMeD)][Ala(pyrimidin-5-yl)]Q[Dab]G[dPro(4R-(4-pyridylmethyl))]) (ring closure inferred) [SEQ ID NO: 154]	0.011
cyclo([Bip(4'-COOH)][Ala(1-bicyclo(1.1.1)pentyl)][Phe(4-COOH)]G[Pro(cis-4-F)][Trp(βS-Me,4-F)][Aib]SW[αMeD]VQ[Dab]G[dPro(4R-(4-pyridylmethyl))]) (ring closure inferred; not fully specified (bridges); printed as Bip4CO2H-AlaPent-Phe4COOH-G-Proc4F-SbMeW4F-Aib-S-W-aMeD-V-Q-Dab-G-dProc4CH24Pal, cyclic (macrolactam)) [SEQ ID NO: 203]	0.016
